Reference for the values: ChEMBL document CHEMBL1806454

# log10 IC50 values compiled below
Biological target: Amine oxidase [flavin-containing] B (Homo sapiens)
Sequence (P27338 whole entry): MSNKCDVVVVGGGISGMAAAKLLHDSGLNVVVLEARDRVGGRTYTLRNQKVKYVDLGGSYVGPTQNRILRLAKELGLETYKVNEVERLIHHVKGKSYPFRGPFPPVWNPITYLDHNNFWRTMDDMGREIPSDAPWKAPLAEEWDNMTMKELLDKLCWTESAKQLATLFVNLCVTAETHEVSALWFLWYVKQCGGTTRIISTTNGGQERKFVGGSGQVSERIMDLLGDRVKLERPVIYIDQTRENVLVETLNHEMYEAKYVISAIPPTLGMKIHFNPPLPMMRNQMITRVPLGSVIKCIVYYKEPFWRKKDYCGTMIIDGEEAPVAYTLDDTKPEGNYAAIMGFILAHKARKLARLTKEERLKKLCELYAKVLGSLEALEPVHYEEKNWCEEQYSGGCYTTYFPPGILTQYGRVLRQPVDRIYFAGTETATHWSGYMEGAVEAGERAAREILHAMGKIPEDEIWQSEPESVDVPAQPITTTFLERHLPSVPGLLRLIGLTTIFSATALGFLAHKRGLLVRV
Assay: Inhibition of recombinant human MAOB expressed in baculovirus infected insect cell microsomes using kynuramine as substrate assessed as formation of 4-hydroxyquinoline after 20 mins by fluorescence spectrophotometry
metric: log10 IC50 (log10 of the value in nM)

>>> endpointvalue("CC(C)CCCCOc1nc2c(c(=O)n(C)c(=O)n2C)n1C")
2.58
>>> endpointvalue("Cn1c(=O)c2c(nc(OCc3ccc(Cl)cc3)n2C)n(C)c1=O")
1.81
>>> endpointvalue("CC(C)CCOc1nc2c(c(=O)n(C)c(=O)n2C)n1C")
4.15
>>> endpointvalue("Cn1c(=O)c2c(nc(OCC3CCCC3)n2C)n(C)c1=O")
4.20
>>> endpointvalue("Cn1c(=O)c2c(nc(Oc3ccccc3)n2C)n(C)c1=O")
4.03
>>> endpointvalue("Cn1c(=O)c2c(nc(OCc3ccc(Br)cc3)n2C)n(C)c1=O")
1.79
>>> endpointvalue("Cn1c(=O)c2c(nc(OCC3CC=CCC3)n2C)n(C)c1=O (configuration not stated)")
3.48

* * *

target: Amine oxidase [flavin-containing] A (Homo sapiens, UniProt P21397); test: Inhibition of recombinant human MAOA expressed in baculovirus infected insect cell microsomes using kynuramine as substrate assessed as formation of 4-hydroxyquinoline after 20 mins by fluorescence spectrophotometry
Sequence (P21397 whole entry): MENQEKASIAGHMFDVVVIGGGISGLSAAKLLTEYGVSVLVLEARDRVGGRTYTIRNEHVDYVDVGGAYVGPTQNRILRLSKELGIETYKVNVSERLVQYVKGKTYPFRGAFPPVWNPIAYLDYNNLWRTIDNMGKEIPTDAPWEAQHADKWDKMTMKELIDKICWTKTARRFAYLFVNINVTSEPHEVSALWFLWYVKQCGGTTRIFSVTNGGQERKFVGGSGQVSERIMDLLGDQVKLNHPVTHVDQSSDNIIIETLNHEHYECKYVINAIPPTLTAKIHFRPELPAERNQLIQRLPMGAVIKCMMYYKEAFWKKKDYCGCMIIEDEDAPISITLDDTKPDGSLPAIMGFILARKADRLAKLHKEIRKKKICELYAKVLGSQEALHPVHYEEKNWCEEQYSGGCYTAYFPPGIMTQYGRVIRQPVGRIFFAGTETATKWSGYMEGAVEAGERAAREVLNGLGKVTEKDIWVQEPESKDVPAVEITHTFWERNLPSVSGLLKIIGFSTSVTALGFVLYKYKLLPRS
Attribute: IC50
metric: IC50

>>> endpointvalue("Cn1c(=O)c2c(nc(OCCc3ccccc3)n2C)n(C)c1=O")
"15.9 µM"
>>> endpointvalue("Cn1c(=O)c2c(nc(OCC3CCCCC3)n2C)n(C)c1=O")
"18.4 µM"
>>> endpointvalue("CC(C)CCCCOc1nc2c(c(=O)n(C)c(=O)n2C)n1C")
"15.2 µM"
>>> endpointvalue("Cn1c(=O)c2c(nc(OCc3ccc(Br)cc3)n2C)n(C)c1=O")
"1.3 µM"
>>> endpointvalue("Cn1c(=O)c2c(nc(OCC3CCCC3)n2C)n(C)c1=O")
"22.8 µM"
>>> endpointvalue("Cn1c(=O)c2c(nc(Oc3ccccc3)n2C)n(C)c1=O")
"75.2 µM"
>>> endpointvalue("Cn1c(=O)c2c(nc(OCCCc3ccccc3)n2C)n(C)c1=O")
"69.3 µM"
>>> endpointvalue("Cn1c(=O)c2c(nc(OCCOc3ccccc3)n2C)n(C)c1=O")
"20.4 µM"
>>> endpointvalue("Cn1c(=O)c2c(nc(OCC3CC=CCC3)n2C)n(C)c1=O (stereo not drawn)")
"13.8 µM"
>>> endpointvalue("CC(C)CCOc1nc2c(c(=O)n(C)c(=O)n2C)n1C")
"27.3 µM"
>>> endpointvalue("Cn1c(=O)c2c(nc(OCc3ccc(Cl)cc3)n2C)n(C)c1=O")
"1.34 µM"
>>> endpointvalue("Cn1c(=O)c2c(nc(OCCOCc3ccccc3)n2C)n(C)c1=O")
"168 µM"
>>> endpointvalue("Cn1c(=O)c2c(nc(OCCOc3ccc(Br)cc3)n2C)n(C)c1=O")
"1.65 µM"
